- Measurement notes: Saline solubility at 1.00 mg/mL and 0.50 mg/mL (with pH by indicator paper)
- Type: physicochemical
- Assay setup: final concentration of hydroxamate 1 1.00 mg/mL, pH indicator paper
- Protocol: Assays were performed to determine the saline solubility at 1.00 and 0.50 mg/ml and the stability of certain of the prodrug compounds of Examples 1-111. The following procedures were used. Step 1. Sample preparation. […] The pH was measured with pH indicator paper. […] The vial was shaken on a Vortex apparatus, injected into the HPLC instrument (UV detection, zero time point) and the retention time and purity of the sample compound were determined. […]
Where a name gives a salt, the structure may show the parent alone.
Consider the following compounds and their measured pH at 1.00 mg/mL of MGCD290 in saline readings.

# annotated cases, reported pH at 1.00 mg/mL of MGCD290 in saline shown
Request: What pH at 1.00 mg/mL of MGCD290 in saline value was documented for this compound, CCOC(=O)CNC(=O)ONC(=O)Cc1ccc(CCCCc2ccccc2)cc1 ?
Response: 4.5-5

Request: What pH at 1.00 mg/mL of MGCD290 in saline value was documented for this compound, CC(=O)OCC(=O)NCCCC[C@H](NC(=O)COC(C)=O)C(=O)NCCC(=O)ONC(=O)Cc1ccc(CCCCc2ccccc2)cc1 ?
Response: 4.5-5

Request: What pH at 1.00 mg/mL of MGCD290 in saline value was documented for this compound, COCCOCCOCC(=O)NCCCC[C@H](NC(=O)COCCOCCOC)C(=O)ONC(=O)Cc1ccc(CCCCc2ccccc2)cc1 ?
Response: 4.5-5

Request: What pH at 1.00 mg/mL of MGCD290 in saline value was documented for this compound, COCCOCCOCCOCCOCC(=O)N1CCN(C(=O)ONC(=O)Cc2ccc(CCCCc3ccccc3)cc2)CC1 ?
Response: 4.5-5

Request: What pH at 1.00 mg/mL of MGCD290 in saline value was documented for this compound, NCCNCC(=O)NCCC(=O)ONC(=O)Cc1ccc(CCCCc2ccccc2)cc1 [Compound 135, dihydrochloride] ?
Response: 4.5-5

Continuing:
Request: What pH at 1.00 mg/mL of MGCD290 in saline value was documented for this compound, COCCOCCOCCOCCOCCOCC(=O)NCC1(C(=O)ONC(=O)Cc2ccc(CCCCc3ccccc3)cc2)CC1 ?
Response: 4.5-5

Request: What pH at 1.00 mg/mL of MGCD290 in saline value was documented for this compound, COCCOCCOCC(=O)N1CC(CCCC(=O)ONC(=O)Cc2ccc(CCCCc3ccccc3)cc2)C1 [Compound 128B] ?
Response: 5.5-6

Request: What pH at 1.00 mg/mL of MGCD290 in saline value was documented for this compound, COCCOCCOCC(=O)NCCN(CC(=O)NCCCC(=O)ONC(=O)Cc1ccc(CCCCc2ccccc2)cc1)C(=O)COCCOCCOC ?
Response: 5.5-6
